target: T1, MHC class I molecule B*0702 (biotin (bound to streptavidin-coated plate)); experiment: iTopia iScore
T1 construct: also called B7; HLA-B7
iScore: recorded values
Parameter Measured: iScore

# Binder, Recorded Value
rows = [
    ("AYVRNLFLT [5T4 9-mer peptide 46 AYVRNLFLT]", 0),
    ("SAQPPLPDQ [5T4 9-mer peptide 27 SAQPPLPDQ]", 0),
    ("LPSLRHLDL [5T4 9-mer peptide 117 LPSLRHLDL]", 0.445),
    ("RLRLARLAL [5T4 9-mer peptide 8 RLRLARLAL]", 1),
    ("GMVVAALLA [5T4 9-mer peptide 99 GMVVAALLA]", 0),
    ("NRNLTEVPT [5T4 9-mer peptide 40 NRNLTEVPT]", 0),
    ("NHIVPPEDE [5T4 9-mer peptide 91 NHIVPPEDE]", 0),
    ("IVPPEDERQ [5T4 9-mer peptide 92 IVPPEDERQ]", 0),
    ("VLAQLPSLR [5T4 9-mer peptide 115 VLAQLPSLR]", 0),
    ("VKCVNRNLT [5T4 9-mer peptide 38 VKCVNRNLT]", 0),
    ("LAELAALNL [5T4 9-mer peptide 59 LAELAALNL]", 0.074),
    ("NLTEVPTDL [5T4 9-mer peptide 41 NLTEVPTDL]", 0),
    ("QPPLPDQCP [5T4 9-mer peptide 28 QPPLPDQCP]", 0),
    ("FARRPPLAE [5T4 9-mer peptide 56 FARRPPLAE]", 0),
    ("LLAGRALQG [5T4 9-mer peptide 102 LLAGRALQG]", 0),
    ("AFEHLPSLR [5T4 9-mer peptide 69 AFEHLPSLR]", 0),
    ("RTVKCVNRN [5T4 9-mer peptide 37 RTVKCVNRN]", 0),
    ("CVNRNLTEV [5T4 9-mer peptide 39 CVNRNLTEV]", 0.093),
    ("ILNHIVPPE [5T4 9-mer peptide 90 ILNHIVPPE]", 0),
    ("PFAFSGSNA [5T4 9-mer peptide 80 PFAFSGSNA]", 0),
    ("GWVSSSSPT [5T4 9-mer peptide 14 GWVSSSSPT]", 0),
    ("VSSSSPTSS [5T4 9-mer peptide 15 VSSSSPTSS]", 0),
    ("RRLELASNH [5T4 9-mer peptide 107 RRLELASNH]", 0),
    ("AGAFEHLPS [5T4 9-mer peptide 68 AGAFEHLPS]", 0),
    ("VPTDLPAYV [5T4 9-mer peptide 43 VPTDLPAYV]", 0),
    ("VRAGAFEHL [5T4 9-mer peptide 67 VRAGAFEHL]", 0.085),
    ("DGRLRLARL [5T4 9-mer peptide 7 DGRLRLARL]", 0.038),
    ("SGSNASVSA [5T4 9-mer peptide 82 SGSNASVSA]", 0),
    ("ERQNRSFEG [5T4 9-mer peptide 95 ERQNRSFEG]", 0),
    ("ELILNHIVP [5T4 9-mer peptide 89 ELILNHIVP]", 0),
    ("ADLSPFAFS [5T4 9-mer peptide 78 ADLSPFAFS]", 0),
    ("LYLPRDVLA [5T4 9-mer peptide 112 LYLPRDVLA]", 0),
]
